# System: A549-ACE2
# TEST NAME: drug-induced phospholipidosis relative to tamoxifen; higher = more phospholipidosis
# RECORDED CONDITIONS: 3.33333 µM; 48 h
READOUT TYPE: drug-induced phospholipidosis

COMPOUND | SUBJECT OF TEST | DATA VALUE
COc1c(OCCCN2CCOCC2)ccc2c1N=C(NC(=O)c1cnc(N)nc1)N1CCN=C21 | A549-ACE2 | 0.68%
O=c1[nH]c2ccccc2n1C1CCN(CCCC(c2ccc(F)cc2)c2ccc(F)cc2)CC1 [pimozide] | A549-ACE2 | 17.8%
CCN1CCC(n2cc(CNc3cc(Cl)c4ncc(C#N)c(Nc5ccc(F)c(Cl)c5)c4c3)nn2)CC1 | A549-ACE2 | 2.2%
CCC(CC)COC(=O)[C@H](C)N[P@](=O)(OC[C@H]1O[C@@](C#N)(c2ccc3c(N)ncnn23)[C@H](O)[C@@H]1O)Oc1ccccc1 | A549-ACE2 | 0.11%

====

# Tested on: Caco-2
# TEST NAME: cell viability relative to DMSO; higher = less toxic
# RECORDED CONDITIONS: 72 h; 1000 nM
READOUT TYPE: cell viability

COMPOUND | SUBJECT OF TEST | DATA VALUE
O=c1cc(N2CCN(c3cccc(C(F)(F)F)c3)CC2)[nH]c(=O)n1C1CCCCC1 [ML179] | Caco-2 | 98%
CCCCCCCCNC(C)C(O)c1ccc(SC(C)C)cc1 (centres undefined) [suloctidil] | Caco-2 | 101%
COc1ccc(CNC(=O)/C=C/c2ccc3[nH]cc(CCN(C)C)c3c2)cc1 | Caco-2 | 96.6%
COc1ccc2[nH]cc(CCNC(C)=O)c2c1 [melatonin] | Caco-2 | 102%
CCN(c1cc(C#CCN2CCOCC2)cc(C(=O)NCc2c(C)cc(C)[nH]c2=O)c1C)[C@H]1CC[C@H](N(C)CCOC)CC1 | Caco-2 | 95.3%
COC1CCN(c2cccc(-c3cc(NC(C)=O)nc(-n4nc(C)cc4C)n3)n2)CC1 [TC-G-1004] | Caco-2 | 96.9%
O=C(O)CCNc1cc(N2CCc3ccccc3CC2)nc(-c2cccnc2)n1 [GSK-J2] | Caco-2 | 94.8%
CCCOC(=O)c1ccc(O)cc1 [propyl 4-hydroxybenzoate] | Caco-2 | 90.2%
Cc1csc2c(N[C@@H](C)CN3CCN(S(=O)(=O)c4ccc(Cl)c(Cl)c4)CC3)ncnc12 [LPA2-antagonist-1] | Caco-2 | 80.9%

====

Examples of molecules with documented SARS-CoV-2 infection rate follow.
# Test system: A549-ACE2 infected with SARS-CoV-2
# TEST NAME: SARS-CoV-2 infection rate relative to DMSO; higher = more infection
# RECORDED CONDITIONS: 0.3 µM; 24 h

MOLECULE | SARS-CoV-2 infection rate / %
O=S(=O)(NCC1CC1)c1ccc(Nc2nccc(N3CCCc4cc(O)ccc43)n2)cc1 | 103
O=c1[nH]c2ccccc2n1C1CCN(CCCC(c2ccc(F)cc2)c2ccc(F)cc2)CC1 [pimozide] | 99
CCCCCCCCNC(C)C(O)c1ccc(SC(C)C)cc1 (centres undefined) | 99
CN1CCCCC1Cn1cc(C(=O)c2cc([N+](=O)[O-])ccc2I)c2ccccc21 (centres undefined) | 107
